- target under test: HLA-B*15:02
- assay details: IEDB peptide-MHC binding, purified MHC/competitive/fluorescence; filed as Kd, often an IC50 or EC50 that approximates it; bounds were set here for any values at or beyond the usual limits of such assays
- measurement setup: source organism: Bacillus anthracis str. A2012
property: Kd (nM)

sequence string	assay result
SMFDSWGPF	5

---

- target under test: HLA-A*11:01
- assay details: IEDB peptide-MHC binding, purified MHC/direct/fluorescence; filed as Kd, often an IC50 or EC50 that approximates it; bounds were set here for any values at or beyond the usual limits of such assays
- measurement setup: source organism: Yellow fever virus 1899/81
pKd: −log10 of the molar value.
property: pKd

sequence string	assay result
GTHPFSRIR	6.49
